# System: U251 CNS
# experimental-details: NCI tumour cell line growth inhibition, 48 h
TGI values for the molecules below.

[[record]]
molecule = "CC(=O)NNc1ncc(C(=O)/C=C/c2ccccc2C)s1"
result = "> 100 µM"


# query: TGI of entry "CCOc1ccc(Nc2ccnc3cc(Cl)ccc23)cc1"
> 100 µM

# query: TGI of entry C/C(=N\N)C(CN1CCOCC1)C(c1ccccc1)c1c(O)c2ccccc2oc1=O (configuration not stated)
> 100 µM

# query: TGI of entry "CCCC[C@H](CCc1ccccc1)N(C(=O)OC)N1CCC[C@H]1COC"
29.1 µM

# query: TGI of entry "Brc1ccc2nc(-c3cccs3)nc(N3CCN(c4ccccc4)CC3)c2c1"
> 100 µM

# query: TGI of entry "COc1ccc(/C=C/c2cc(OC)c(OC)c(OC)c2)cc1OC"
> 100 µM

# query: TGI of entry COc1c(O)cc2c(c1O)C(=O)C(Cc1ccc(O)cc1)CO2 (configuration not stated)
> 100 µM

* * *

# Tested on: M14 melanoma
# experimental-details: NCI tumour cell line growth inhibition, 48 h
parameter: GI50

Known GI50 results, listed for orientation:
[[record]]
cpd_smiles = "[Mn+3].[O-][Cl+3]([O-])([O-])O.[O-]c1ccccc1C=NCCN1CC1.[O-]c1ccccc1C=NCCN1CC1"
assayed_system = "M14 melanoma"
result = "26.9 µM"

[[record]]
cpd_smiles = "Cc1cccc2c(=O)c3c(sc12)c(NCCCN)nc1ccccc13"
assayed_system = "M14 melanoma"
result = "1.58 µM"


Which measured GI50 belongs to "COc1cc(-c2n/c(=C\c3c(O)[nH]c4ccccc34)cc3c2=Nc2ccccc2-3)ccc1F" , tested on M14 melanoma?
5.2 µM

* * *

TGI values for the compounds below.
# Test system: A549 NSCLC
# experimental-details: NCI tumour cell line growth inhibition, 48 h

[[record]]
compound = "[N-]=[N+]=C1C(=O)C2CC3CC1CC2C3 (stereo not given)"
assayed_system = "A549 NSCLC"
result = "> 100 µM"


# query: TGI of entry "O=S(=O)(O)c1ccc(N=Nc2ccc(N=Nc3c(O)ccc4ccc(S(=O)(=O)O)cc34)cc2)cc1"
> 100 µM

# query: TGI of entry C=C1C2CC(OC(C)=O)C3(C)C(c4ccoc4)OC(=O)[C@@H](O)[C@]13OC1C[C@H](OC(C)=O)C(C)(C)[C@H](C(O)C(=O)OC)[C@]12C (stereo not given in full)
> 100 µM

* * *

# System: NCI-H522 lung
# experimental-details: NCI tumour cell line growth inhibition, 48 h
parameter: TGI

Known TGI results, listed for orientation:
[[record]]
compound = "O=[N+]([O-])c1cc(I)cc(/C=N/NS(=O)(=O)c2ccc(F)cc2)c1O"
result = "40.9 µM"

[[record]]
compound = "N#CC1(C#N)C(=O)c2ccncc2C1=O"
result = "> 100 µM"

[[record]]
compound = "Cc1ccc(NC(=O)C(=O)C2C(=O)NC(=O)NC2=O)c(C)c1"
result = "> 100 µM"

[[record]]
compound = "OCC1CC2C=CCC(C2)C1 (stereo unspecified)"
result = "> 100 µM"

[[record]]
compound = "CN1C(c2ccccc2)CC(=NO)CC1c1ccccc1 (stereo unspecified)"
result = "> 100 µM"

[[record]]
compound = "CC1=C/C(=N\\NS(=O)(=O)c2ccc([N+](=O)[O-])cc2)CC(C)(C)C1"
result = "> 100 µM"


# query: TGI of entry "OCC#Cc1ccccc1C#Cc1ccc(C#Cc2ccccc2C#CCO)cc1"
> 100 µM

# query: TGI of entry "O=C(O)c1nn(-c2ccc(Cl)cc2)c2c1C(=O)c1ccccc1C2=O"
> 100 µM

# query: TGI of entry "CC1(C)C(CBr)=[N+]([O-])C(C)(C)N1O"
3.22 µM

# query: TGI of entry "O=C1NN(C(=O)c2ccccc2)C(c2ccc(Cl)c(Cl)c2)=C/C1=C\c1ccccc1[N+](=O)[O-]"
3.77 µM

# query: TGI of entry "COc1ccc2c(c1)/C(=C\c1c(-c3ccccc3)nc3sccn13)C(=O)N2"
67.3 µM

* * *

# System: A549 NSCLC
# experimental-details: NCI tumour cell line growth inhibition, 48 h
parameter: TGI

# query: TGI of entry "COC(=O)CCCCCOS(=O)(=O)c1ccc(C)cc1"
> 100 µM

# query: TGI of entry "O=C(N/C(=C\c1cccc([N+](=O)[O-])c1)c1nc2c3c(ccc2[nH]1)C(=O)c1ccccc1C3=O)c1ccccc1"
> 100 µM

# query: TGI of entry NC1=C(O)/C(=N/NS(=O)(=O)c2ccccc2)C(c2ccc3c(c2)OCO3)O1 (centres undefined)
> 100 µM

# query: TGI of entry "Cc1cccc2c(=O)c3c(sc12)c(NCCCN)nc1ccccc13"
2.45 µM

# query: TGI of entry "O=P(O)(O)c1ccc2c(c1)OCCOCCOCCOCCO2"
> 100 µM

# query: TGI of entry "CC(=O)OC(OC(C)=O)c1c2ccccc2cc2ccccc12"
65.9 µM

# query: TGI of entry "Cn1nc(-c2ccccc2)c2c(/C=C/c3ccc(F)cc3)onc2c1=O"
> 100 µM

# query: TGI of entry "CCCCCCCCCCNC(=S)OC"
> 100 µM

# query: TGI of entry "O=c1cc(-c2ccccc2)oc2c(O)c(O)ccc12"
91.5 µM

# query: TGI of entry "FC(F)(F)c1cccc(Oc2ccc(Nc3ncnc4ccc(OCCCN5CCOCC5)cc34)cc2Cl)c1"
5.64 µM

# query: TGI of entry "CC1(C)N=C(N)N=C(N)N1c1cccc(CCCCc2ccc(Cl)c(S(=O)(=O)F)c2)c1"
36 µM

# query: TGI of entry "CC(=O)N(N=O)c1ccc(N(N=O)C(C)=O)cc1"
> 100 µM

# query: TGI of entry CO[C@H]1/C=C/O[C@@]2(C)Oc3c(C)c(O)c4c(O)c(c(/C=N/N5C(C)CN(Cc6ccc(C#N)cc6)CC5C)c(O)c4c3C2=O)NC(=O)/C(C)=C\C=C\[C@H](C)[C@H](O)[C@@H](C)[C@@H](O)[C@@H](C)[C@H](OC(C)=O)[C@@H]1C (some centres undefined)
17.1 µM

# query: TGI of entry "N[C@@H](Cc1c[nH]c2ccccc12)C(=O)NC1CCN(Cc2c[nH]c3ccc(Cl)cc23)CC1"
27.5 µM

# query: TGI of entry "CC1(C)CC[C@]2(C)[C@@H](O)C[C@]3(C)C(=CC[C@@H]4[C@@]5(C)CC[C@H](O)C(C)(C)[C@@H]5CC[C@]43C)[C@@H]2C1"
> 100 µM

# query: TGI of entry "Clc1ccc(-c2nnc(-c3nn(-c4ccccc4)c4nc5ccccc5nc34)o2)cc1"
> 100 µM

# query: TGI of entry "Fc1ccccc1-c1cc(=S)c2cc3c(cc2[nH]1)OCO3"
> 100 µM

# query: TGI of entry "CC(C)(C)c1ccc(NS(=O)(=O)c2ccc(N)cc2)cc1"
> 100 µM

# query: TGI of entry "COC(=O)c1ccc(Oc2nc3ccc(C(F)(F)F)cc3nc2-c2ccccc2)cc1"
> 100 µM

* * *

# Test system: BT-549 breast
# experimental-details: NCI tumour cell line growth inhibition, 48 h
log10 TGI values for the compounds below.
Heads up, the numbers here are log10 of TGI in µM units.

[[record]]
cpd_smiles = "COC1=CC(c2ccc[nH]2)=N/C1=C\\c1[nH]c(C)c(CC(=O)NCc2ccccc2)c1C"
quantitative_readout = 0.49

[[record]]
cpd_smiles = "Cc1cc2[nH]c(=O)c3c4ncccc4cn3c2cc1C"
quantitative_readout = 1.62

[[record]]
cpd_smiles = "CCN(CC)CCOCCOCC1(c2ccc(Cl)c(Cl)c2)CCCCC1"
quantitative_readout = 1.41

[[record]]
cpd_smiles = "Cc1cc(C)c([I+]c2c(C)cc(C)cc2C)c(C)c1"
quantitative_readout = 0.20

[[record]]
cpd_smiles = "COc1ccc2c(c1)c1ccc3c(c1n2C)C(=O)C=CC3=O"
quantitative_readout = 1.01


# query: log10 TGI of entry "COc1cc(/C=C2\C(=O)Nc3ccc(Cl)cc32)cc(OC)c1OC"
1.97

# query: log10 TGI of entry "Cc1c(C)c(S(=O)(=O)N(CCCN)OCCCN)c(C)c2c1OC(C)(C)CC2"
1.50

* * *

TGI values for the compounds below.
# Tested on: UO-31 renal
# experimental-details: NCI tumour cell line growth inhibition, 48 h
Please respond with the number in µM and leave the unit unwritten.

Known TGI results, listed for orientation:
[[record]]
compound = "COC(=O)CC(C(C(=O)OCc1ccccc1)C(C)O)N1C(=O)OCC1c1ccccc1 (centres undefined)"
quantitative_readout = 90.6

[[record]]
compound = "CCCNC(=O)Cn1c2c(c3ccccc31)CCCC2"
quantitative_readout = 89.9

[[record]]
compound = "Oc1cccc2ccc(SSc3ccc4cccc(O)c4n3)nc12"
quantitative_readout = 83.9


# query: TGI of entry "COc1ccc2c(c1)c1ccc3c(c1n2C)C(=O)C=CC3=O"
24.5

# query: TGI of entry "CSc1ccc(Cc2cc(C(C)(C)C)cc(C(C)(C)C)c2O)cc1"
30.7
